- assayed target: STING WT: His-TVMV-S-hSTING(155-341)-H232R (Homo sapiens, UniProt Q86WV6, H232R)
- Construct: His-TVMV-S-hSTING(155-341)-H232R
- Sequence (Q86WV6 with tags, fused parts or gaps H232R): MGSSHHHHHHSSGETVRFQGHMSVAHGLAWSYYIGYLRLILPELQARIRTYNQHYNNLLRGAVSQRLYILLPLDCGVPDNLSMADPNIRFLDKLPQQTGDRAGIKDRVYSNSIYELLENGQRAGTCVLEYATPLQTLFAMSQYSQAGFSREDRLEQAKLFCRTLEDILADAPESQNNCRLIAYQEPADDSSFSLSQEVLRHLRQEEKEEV
- protocol description: STING HTRF binding assay (time resolved FRET competition), STING WT
- settings: 20 nM His-tagged STING cytoplasmic domain, 200 nM fluorescein-labeled cGAMP analog probe, one hour; read-out: HTRF Binding Assays IC50 STING WT
measured parameter: pIC50
Keep in mind that pIC50 stands for -log10 of concentration in molar terms.

// below: answered compounds
compound	assayed target	recorded measurement
Nc1ncnc2c1ncn2[C@@H]1C[C@@H]2COP(O)(=S)O[C@@H]3[C@H](O)[C@@H](COP(O)(=S)OC[C@H]21)O[C@H]3n1cnc2c(O)nc3nccn3c21 (single isomer, unassigned) [Example 15-4]	STING WT: His-TVMV-S-hSTING(155-341)-H232R (Homo sapiens, UniProt Q86WV6, H232R)	5.41
Nc1ncnc2c1ncn2[C@@H]1C[C@@H]2COP(=O)(S)O[C@H]3[C@@H](F)[C@H](n4cnc5c(N)ncnc54)O[C@@H]3COP(=O)(S)OC[C@H]21 (single isomer, unassigned) [Example 1-1]	STING WT: His-TVMV-S-hSTING(155-341)-H232R (Homo sapiens, UniProt Q86WV6, H232R)	5.80

Task item: Quick one: pIC50 for Nc1ncnc2c1ncn2[C@@H]1O[C@@H]2COP(O)(=S)OC[C@@H]3[C@@H](COP(O)(=S)O[C@H]2[C@H]1F)C[C@H]3n1cnc2c(=O)[nH]cnc21 (single isomer, unassigned) [Example 5-4] ?
Reply: 6.92

* * *

- assayed target: STING WT: His-TVMV-S-hSTING(155-341)-H232R (Homo sapiens, UniProt Q86WV6, H232R)
- Construct: His-TVMV-S-hSTING(155-341)-H232R
- protocol description: STING HTRF binding assay (time resolved FRET competition), STING WT
- settings: 20 nM His-tagged STING cytoplasmic domain, 200 nM fluorescein-labeled cGAMP analog probe, one hour; read-out: HTRF Binding Assays IC50 STING WT
measured parameter: IC50 (µM)
Report only the number, with the unit µM understood.

compound	IC50, µM
Nc1ncnc2c1ncn2[C@@H]1O[C@@H]2COP(O)(=S)OC[C@@H]3[C@@H](COP(O)(=S)O[C@H]2[C@H]1F)C[C@H]3n1cnc2c(O)nc3nccn3c21 (single isomer, unassigned) [Example 3-3]	0.18
O=c1[nH]c2nccn2c2c1ncn2[C@@H]1O[C@@H]2COP(=O)(S)OC[C@@H]3[C@@H](COP(=O)(S)O[C@@H]1[C@@H]2O)C[C@H]3n1cnc2c(O)ncnc21 (single isomer, unassigned) [Example 14-4]	4.3
Nc1nc2c(ncn2[C@@H]2C[C@@H]3COP(O)(=S)O[C@H]4[C@@H](F)[C@H](n5cnc6c(N)ncnc65)O[C@@H]4COP(O)(=S)OC[C@H]32)c(=O)[nH]1 (single isomer, unassigned) [Example 18-4]	0.05
Nc1ncnc2c1ncn2[C@@H]1C[C@@H]2COP(O)(=S)O[C@H]3[C@@H](F)[C@H](n4cnc5c(=O)[nH]c6nccn6c54)O[C@@H]3COP(O)(=S)OC[C@H]21 (single isomer, unassigned) [Example 9-3]	9.1

Next:
Task item: Recorded IC50 of NC(=O)c1cccc2c1nnn2[C@@H]1O[C@@H]2COP(O)(=S)OC[C@@H]3[C@@H](COP(O)(=S)O[C@@H]1[C@@H]2F)C[C@H]3n1cnc2c(N)ncnc21 (single isomer, unassigned) [Example 11-4] , please.
Reply: 66.2

* * *

- assayed target: STING AQ: His-TVMV-S-hSTING(155-341)-G230A-R293Q (Homo sapiens, UniProt Q86WV6, G230A/H232R/R293Q)
- Construct: His-TVMV-S-hSTING(155-341)-G230A-R293Q
- Sequence (Q86WV6 with tags, fused parts or gaps G230A/H232R/R293Q): as the sequence (Q86WV6 with tags, fused parts or gaps H232R) above, with G99A, R162Q counted along it
- protocol description: STING HTRF binding assay (time resolved FRET competition), STING AQ
- settings: 20 nM His-tagged STING cytoplasmic domain, 40 nM fluorescein-labeled cGAMP analog probe, one hour; read-out: HTRF Binding Assays IC50 STING AQ
- Procedure: A time resolved FRET-based competition binding assay was used to assess test article binding to STING WT and STING AQ. […] Fluorescence at 495 nm and 520 nm was measured using an EnVision microplate reader to quantify FRET between Tb-labeled anti-His antibody and fluorescein-labeled probe. […] Percent inhibition was determined for test compounds at 11 concentrations. […]
Each item that follows carries a reported pIC50.
Scale note: pIC50 = -log10(concentration in M).

Task item: So what's the measured pIC50 for this one? Nc1ncnc2c1ncn2[C@@H]1O[C@@H]2COP(O)(=S)OC[C@@H]3[C@@H](COP(O)(=S)O[C@H]2[C@H]1F)C[C@H]3n1cnc2c(O)nc3nccn3c21 (single isomer, unassigned) [Example 3-3]
Reply: 6.85

Task item: What do we get for NC(=O)c1cccc2c1nnn2[C@@H]1O[C@@H]2COP(O)(=S)OC[C@@H]3[C@@H](COP(O)(=S)O[C@H]2[C@H]1F)C[C@H]3n1cnc2c(N)ncnc21 (single isomer, unassigned) [Example 12-4] ?
Reply: 6.40

Task item: Please answer likewise for O=c1[nH]c2nccn2c2c1ncn2[C@@H]1O[C@@H]2COP(=O)(S)OC[C@@H]3[C@@H](COP(=O)(S)O[C@@H]1[C@@H]2O)C[C@H]3n1cnc2c(O)ncnc21 (single isomer, unassigned) [Example 14-3]
Reply: 5.77

Task item: Another compound: Nc1ncnc2c1ncn2[C@@H]1C[C@@H]2COP(=O)(S)O[C@H]3[C@@H](F)[C@H](n4cnc5c(N)ncnc54)O[C@@H]3COP(=O)(S)OC[C@H]21 (single isomer, unassigned) [Example 1-1]
Reply: 7.22

Task item: Same question for NC(=O)c1cccc2c1nnn2[C@@H]1O[C@@H]2COP(O)(=S)OC[C@@H]3[C@@H](COP(O)(=S)O[C@@H]1[C@@H]2F)C[C@H]3n1cnc2c(N)ncnc21 (single isomer, unassigned) [Example 11-1] please.
Reply: 5.51

Task item: // same read-out, input: NC(=O)c1cccc2c1nnn2[C@@H]1O[C@@H]2COP(O)(=S)OC[C@@H]3[C@@H](COP(O)(=S)O[C@H]2[C@H]1F)C[C@H]3n1cnc2c(N)ncnc21 (single isomer, unassigned) [Example 12-3]
Reply: 4.19

Task item: Also check Nc1ncnc2c1ncn2[C@@H]1O[C@@H]2COP(O)(=S)OC[C@@H]3[C@@H](COP(O)(=S)O[C@H]2[C@H]1F)C[C@H]3n1cnc2c(=O)[nH]cnc21 (single isomer, unassigned) [Example 5-4]
Reply: 8.00

* * *

- assayed target: STING AQ: His-TVMV-S-hSTING(155-341)-G230A-R293Q (Homo sapiens, UniProt Q86WV6, G230A/H232R/R293Q)
- Construct: His-TVMV-S-hSTING(155-341)-G230A-R293Q
- protocol description: STING HTRF binding assay (time resolved FRET competition), STING AQ
- settings: 20 nM His-tagged STING cytoplasmic domain, 40 nM fluorescein-labeled cGAMP analog probe, one hour; read-out: HTRF Binding Assays IC50 STING AQ
So basically, if IC50 comes in under 0.2 µM it's yes, and if it's 0.2 µM or more it's no.

molecule	qualitative label
Nc1nc2c(ncn2[C@@H]2C[C@@H]3COP(O)(=S)O[C@H]4[C@@H](F)[C@H](n5cnc6c(N)ncnc65)O[C@@H]4COP(O)(=S)OC[C@H]32)c(=O)[nH]1 (single isomer, unassigned) [Example 18-4]	yes
O=c1[nH]c2nccn2c2c1ncn2[C@@H]1O[C@@H]2COP(=O)(S)OC[C@@H]3[C@@H](COP(=O)(S)O[C@@H]1[C@@H]2O)C[C@H]3n1cnc2c(O)ncnc21 (single isomer, unassigned) [Example 14-2]	no
Nc1ncnc2c1ccn2[C@@H]1O[C@@H]2COP(O)(=S)OC[C@@H]3[C@@H](COP(O)(=S)O[C@H]2[C@@H]1F)C[C@H]3n1cnc2c(N)ncnc21 (single isomer, unassigned) [Example 8-3]	no
NC(=O)c1cccc2c1nnn2[C@@H]1C[C@@H]2COP(O)(=S)O[C@H]3[C@@H](F)[C@H](n4cnc5c(N)ncnc54)O[C@@H]3COP(O)(=S)OC[C@H]21 (single isomer, unassigned) [Example 13-3]	no
Nc1ncnc2c1ncn2[C@@H]1C[C@@H]2COP(O)(=S)O[C@H]3[C@@H](F)[C@H](n4cnc5c(=O)[nH]c6nccn6c54)O[C@@H]3COP(O)(=S)OC[C@H]21 (single isomer, unassigned) [Example 9-2]	no
NC(=O)c1cccc2c1nnn2[C@@H]1O[C@@H]2COP(O)(=S)OC[C@@H]3[C@@H](COP(O)(=S)O[C@@H]1[C@@H]2F)C[C@H]3n1cnc2c(N)ncnc21 (single isomer, unassigned) [Example 11-2]	no
Nc1ncnc2c1ccn2[C@@H]1O[C@@H]2COP(O)(=S)OC[C@@H]3[C@@H](COP(O)(=S)O[C@H]2[C@@H]1F)C[C@H]3n1cnc2c(N)ncnc21 (single isomer, unassigned) [Example 8-4]	no
Nc1ncnc2c1ncn2[C@@H]1O[C@@H]2COP(O)(=S)OC[C@@H]3[C@@H](COP(O)(=S)O[C@H]2[C@H]1F)C[C@H]3n1cnc2c(O)nc3nccn3c21 (single isomer, unassigned) [Example 3-4]	yes

Task item: Bench note: check whether Nc1ncnc2c1ccn2[C@@H]1O[C@@H]2COP(O)(=S)OC[C@@H]3[C@@H](COP(O)(=S)O[C@H]2[C@@H]1F)C[C@H]3n1cnc2c(N)ncnc21 (single isomer, unassigned) [Example 8-2] shows IC50 below 0.2 µM
Reply: no

Task item: For Nc1ncnc2c1ncn2[C@@H]1C[C@@H]2COP(O)(=S)O[C@H]3[C@@H](F)[C@H](n4cnc5c(=O)[nH]c6nccn6c54)O[C@@H]3COP(O)(=S)OC[C@H]21 (single isomer, unassigned) [Example 9-1] then?
Reply: no

Task item: Consider next the molecule Nc1ncnc2c1ncn2[C@@H]1O[C@@H]2COP(O)(=S)OC[C@@H]3[C@@H](COP(O)(=S)O[C@H]2[C@H]1F)C[C@H]3n1cnc2c(=O)[nH]cnc21 (single isomer, unassigned) [Example 5-3] in the same way.
Reply: yes

Task item: // next record Nc1ncnc2c1ncn2[C@@H]1C[C@@H]2COP(O)(=S)O[C@H]3C[C@H](n4ccc5c(Cl)ncnc54)O[C@@H]3COP(=O)(S)OC[C@H]21 (single isomer, unassigned) [Example 6-1]
Reply: no

Task item: Here is the next molecule: Nc1ncnc2c1ncn2[C@@H]1C[C@@H]2COP(O)(=S)O[C@H]3[C@H](F)[C@H](n4ccc5c(Cl)ncnc54)O[C@@H]3COP(O)(=S)OC[C@H]21 (single isomer, unassigned) [Example 7-1]
Reply: no

Task item: Quick one: Nc1ncnc2c1ncn2[C@@H]1C[C@@H]2COP(=O)(S)O[C@H]3[C@@H](F)[C@H](n4cnc5c(N)ncnc54)O[C@@H]3COP(=O)(S)OC[C@H]21 (single isomer, unassigned) [Example 2-2]
Reply: yes

Task item: Again, but for Nc1ncnc2c1ncn2[C@@H]1O[C@@H]2COP(O)(=S)OC[C@@H]3[C@@H](COP(O)(=S)O[C@H]2[C@H]1F)C[C@H]3n1cnc2c(=O)[nH]cnc21 (single isomer, unassigned) [Example 5-1]
Reply: yes

Task item: Repeat with Nc1ncnc2c1ncn2[C@@H]1C[C@@H]2COP(O)(=S)O[C@H]3[C@@H](O)[C@H](n4cnc5c(O)ncnc54)O[C@@H]3COP(O)(=S)OC[C@H]21 (stereo partly drawn) [Example 16]
Reply: no

Task item: Same for Nc1ncnc2c1ncn2[C@@H]1C[C@@H]2COP(O)(=S)O[C@H]3C[C@H](n4ccc5c(Cl)ncnc54)O[C@@H]3COP(=O)(S)OC[C@H]21 (single isomer, unassigned) [Example 6-3]
Reply: no

Task item: Can you handle Nc1ncnc2c1ncn2[C@@H]1C[C@@H]2COP(O)(=S)O[C@H]3[C@H](F)[C@H](n4ccc5c(Cl)ncnc54)O[C@@H]3COP(O)(=S)OC[C@H]21 (single isomer, unassigned) [Example 7-4] next?
Reply: no

Values were extracted from patent US10744150B2.
